// provenance: patent US20110301200A1

# TESTED TARGET: TR-α (Homo sapiens, UniProt P10827)
# Sequence (P10827 1-410 isoform P10827-2): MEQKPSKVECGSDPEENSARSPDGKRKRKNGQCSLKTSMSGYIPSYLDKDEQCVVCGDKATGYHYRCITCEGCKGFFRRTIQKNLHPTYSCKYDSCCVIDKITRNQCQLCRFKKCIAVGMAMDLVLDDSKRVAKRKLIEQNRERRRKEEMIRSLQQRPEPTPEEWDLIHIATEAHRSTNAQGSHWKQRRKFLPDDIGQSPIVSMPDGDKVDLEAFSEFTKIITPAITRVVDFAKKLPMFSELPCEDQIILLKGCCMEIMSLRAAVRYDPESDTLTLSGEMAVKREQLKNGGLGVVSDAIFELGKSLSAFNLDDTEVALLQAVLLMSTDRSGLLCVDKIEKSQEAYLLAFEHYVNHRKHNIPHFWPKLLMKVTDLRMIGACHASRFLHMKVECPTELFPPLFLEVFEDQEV
# EXPERIMENT SUMMARY: In vitro TR-α activity (in-house protocol)
# Assay type: cell-based
# MEASUREMENT PARAMETERS: Conc. 1 nM; read-out: TR-α Fold Induction w.r.t T3(100 nm)
PROPERTY LABEL: fold induction at 0.001 µM
Format: numeric value only, no unit, no commentary.

Task: Notebook: pull reported fold induction at 0.001 µM for TR-α (Homo sapiens, UniProt P10827), entry CC(ON=Cc1cc(Br)c(Oc2ccc(O)c(S(=O)(=O)N3CCCC3)c2)c(Br)c1)C(=O)O (stereo not drawn) [Example 42]
Result: 17.7

Task: Form: Entry = CCc1cc(Oc2c(Br)cc(C=NOC(C)C(=O)O)cc2Br)ccc1O (stereo not drawn) [Example 25] | System = TR-α (Homo sapiens, UniProt P10827) | fold induction at 0.001 µM = ____
Result: 13.8

Task: # value lookup — system TR-α (Homo sapiens, UniProt P10827), readout fold induction at 0.001 µM, item CC(C)c1cc(Oc2c(Br)cc(C=NOCC(=O)O)cc2Br)ccc1O [Example 3]
Result: 18.3

Task: Checklist item: fold induction at 0.001 µM tested on TR-α (Homo sapiens, UniProt P10827), entry O=C(O)CON=Cc1cc(Cl)c(Oc2ccc(O)c(-c3ccccc3)c2)c(Cl)c1 [Example 4] , value?
Result: 11

Task: Please state recorded fold induction at 0.001 µM (tested on TR-α (Homo sapiens, UniProt P10827)) of CCC(C)c1cc(Oc2c(Cl)cc(C=NOCC(=O)O)cc2Cl)ccc1O (stereo not drawn) [Example 2]
Result: 10.2

Task: Request body: readout fold induction at 0.001 µM, system TR-α (Homo sapiens, UniProt P10827), query O=C(O)CON=Cc1cc(Br)c(Oc2ccc(O)c(C(=O)c3ccc(Cl)cc3)c2)c(Br)c1 [Example 28] . Return the value.
Result: 16.2

Task: Provide value of fold induction at 0.001 µM for this record tested with TR-α (Homo sapiens, UniProt P10827): CCN(CC)S(=O)(=O)c1cc(Oc2c(Br)cc(C=NOC(C)C(=O)O)cc2Br)ccc1O (stereo not drawn) [Example 38]
Result: 10.1

Task: Hi! What's the reported fold induction at 0.001 µM for CC(C)NS(=O)(=O)c1cc(Oc2c(Br)cc(C=NOC(C)C(=O)O)cc2Br)ccc1O (stereo not drawn) [Example 37] on TR-α (Homo sapiens, UniProt P10827)?
Result: 11.2

Task: Can you look up fold induction at 0.001 µM on TR-α (Homo sapiens, UniProt P10827) for CC(C)(ON=Cc1cc(Br)c(Oc2ccc(O)c(Cc3ccccc3)c2)c(Br)c1)C(=O)O [Example 22] ?
Result: 12.1

Task: Notebook: pull reported fold induction at 0.001 µM for TR-α (Homo sapiens, UniProt P10827), entry CC(ON=Cc1cc(Br)c(Oc2ccc(O)c(Cc3ccccc3)c2)c(Br)c1)C(=O)O (stereo not drawn) [Example 16]
Result: 19.1

Task: Provide value of fold induction at 0.001 µM for this record tested with TR-α (Homo sapiens, UniProt P10827): CC(ON=Cc1cc(Br)c(Oc2ccc(O)c(S(=O)(=O)N[C@@H]3C[C@H]4CC[C@@H]3C4)c2)c(Br)c1)C(=O)O (stereo partly drawn) [Example 40]
Result: 10.7

Task: Value wanted: fold induction at 0.001 µM (TR-α (Homo sapiens, UniProt P10827)) of entry CC(ON=Cc1cc(Br)c(Oc2ccc(O)c(S(=O)(=O)NC3CCCCC3)c2)c(Br)c1)C(=O)O (stereo not drawn) [Example 39]
Result: 10.6

---

# TESTED TARGET: TR-β (Homo sapiens)
# Sequence (P10828 whole entry): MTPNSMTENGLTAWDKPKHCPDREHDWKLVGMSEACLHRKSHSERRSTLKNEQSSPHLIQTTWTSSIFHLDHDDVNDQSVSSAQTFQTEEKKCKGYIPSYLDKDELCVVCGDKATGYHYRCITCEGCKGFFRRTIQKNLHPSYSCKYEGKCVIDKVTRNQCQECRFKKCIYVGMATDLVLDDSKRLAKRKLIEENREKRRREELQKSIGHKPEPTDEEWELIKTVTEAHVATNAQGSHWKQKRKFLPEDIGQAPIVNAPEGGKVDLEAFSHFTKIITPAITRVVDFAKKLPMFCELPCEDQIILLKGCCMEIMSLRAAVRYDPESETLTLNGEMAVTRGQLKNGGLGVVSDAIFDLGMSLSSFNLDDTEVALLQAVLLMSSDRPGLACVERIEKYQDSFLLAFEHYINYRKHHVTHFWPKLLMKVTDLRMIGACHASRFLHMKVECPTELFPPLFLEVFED
# EXPERIMENT SUMMARY: In vitro TR-β activity (in-house protocol)
# Format: cell-based
# MEASUREMENT PARAMETERS: Conc. 10 nM; read-out: TR-β Fold Induction w.r.t T3(100 nm)
# fold induction at 0.01 µM binned as small value: < 20; mid value: ≥ 20 and < 50; large value: ≥ 50

Task: The entry to classify is O=C(O)CON=Cc1cc(Br)c(Oc2ccc(O)c(S(=O)(=O)N3CCCC3)c2)c(Br)c1 ; which class holds it?
Result: small value

Task: Which class is correct for the following compound? CCC(C)c1cc(Oc2c(Cl)cc(C=NOC(C)C(=O)O)cc2Cl)ccc1O (stereo not shown)
Result: large value

Task: For O=C(O)CON=Cc1cc(Br)c(Oc2ccc(O)c(C(O)c3ccc(Br)cc3)c2)c(Br)c1 (stereo not shown) , which fold induction at 0.01 µM bin applies?
Result: small value

Task: Bin this entry: CCC(C)c1cc(Oc2c(Br)cc(C=NOC(C(=O)O)c3ccccc3)cc2Br)ccc1O (stereo not shown)
Result: mid value

Task: Exam item: assign CCC(ON=Cc1cc(Br)c(Oc2ccc(O)c(Cc3ccccc3)c2)c(Br)c1)C(=O)O (stereo not shown) to the correct category.
Result: mid value

Task: Assign a bin to CC(ON=Cc1cc(Br)c(Oc2ccc(O)c(S(=O)(=O)N3CCCC3)c2)c(Br)c1)C(=O)O (stereo not shown)
Result: small value

Task: Sort into band: CC(C)(ON=Cc1cc(Br)c(Oc2ccc(O)c(Cc3ccccc3)c2)c(Br)c1)C(=O)O
Result: mid value

Task: # bin label for CC(ON=Cc1cc(Cl)c(Oc2ccc(O)c(C(C)C)c2)c(Cl)c1)C(=O)O (stereo not shown)
Result: mid value

Task: Could you place CCC(ON=Cc1cc(Br)c(Oc2ccc(O)c(C(C)CC)c2)c(Br)c1)C(=O)O (stereo not shown) in its proper category? Many thanks.
Result: large value

Task: Category of O=C(O)CON=Cc1cc(Br)c(Oc2ccc(O)c(Cc3ccccc3)c2)c(Br)c1 :
Result: small value

Task: Into which category would you place CCC(C)c1cc(Oc2c(Br)cc(C=NOC(C)(C)C(=O)O)cc2Br)ccc1O (stereo not shown) ?
Result: large value

Task: Kindly identify the class of O=C(O)CON=Cc1cc(Cl)c(Oc2ccc(O)c(-c3ccccc3)c2)c(Cl)c1 .
Result: small value
